Origin of values: patent EP4722209A1

target: ERα (Homo sapiens, UniProt P03372); construct: host or cells: MCF-7; assay: ER degradation activity in MCF-7 cells (Western blot, grayscale intensity); format: cell-based; conditions: 6 hours treatment, 1 nM to 100 nM, concentration required to degrade 50% of the target protein
A collection of molecules and their measured DC50

Molecule: CC1(C)CC(=C(c2ccc(N3CCN(CC4CCN(c5ccc6c(c5)C(=O)N(C5CCC(=O)NC5=O)C6=O)CC4)CC3)nc2)c2ccc3[nH]nc(F)c3c2)CC(C)(C)O1 (stereo not drawn)
Target Under Test: ERα (Homo sapiens, UniProt P03372)
Endpoint Value: > 100 nM
//
Molecule: CC1(C)CC(=C(c2ccc(N3CC(CN4CCN(c5ccc6c(c5)CN(C5CCC(=O)NC5=O)C6=O)CC4)C3)nc2)c2ccc3[nH]nc(F)c3c2)CC(C)(C)O1 (stereo not drawn)
Target Under Test: ERα (Homo sapiens, UniProt P03372)
Endpoint Value: > 100 nM
//
Molecule: CC1(C)CC(=C(c2ccc(N3CCC(N4CCN(c5ccc6c(c5)CN(C5CCC(=O)NC5=O)C6=O)CC4)CC3)cc2)c2ccc3[nH]nc(F)c3c2)CC(C)(C)O1 (stereo not drawn)
Target Under Test: ERα (Homo sapiens, UniProt P03372)
Endpoint Value: 10 to 100 nM
//
Molecule: CC1(C)CC(=C(c2ccc(N3CCC(CN4CCN(c5cccn6c(N7CCC(=O)NC7=O)cnc56)CC4)CC3)nc2)c2ccc3[nH]nc(F)c3c2)CC(C)(C)O1
Target Under Test: ERα (Homo sapiens, UniProt P03372)
Endpoint Value: < 10 nM
//
Molecule: CC1(C)CC(=C(c2ccc(N3CCC(CN4CCN(c5ccc(C(=O)N[C@H]6CCC(=O)NC6=O)cc5)CC4)CC3)nc2)c2ccc3[nH]nc(F)c3c2)CC(C)(C)O1
Target Under Test: ERα (Homo sapiens, UniProt P03372)
Endpoint Value: < 10 nM
//
Molecule: CC1(C)CC(=C(c2ccc(N3CCC(CN4CCN(c5ccc6c(c5)CN(C5CCC(=O)NC5=O)C6=O)CC4)CC3)nc2)c2ccc3[nH]nc(F)c3c2)CC(C)(C)O1 (racemic)
Target Under Test: ERα (Homo sapiens, UniProt P03372)
Endpoint Value: < 10 nM
//
Molecule: CC1(C)CC(=C(c2ccc(N)nc2)c2ccc(N3CCC(CN4CCN(c5ccc6c(c5)CN(C5CCC(=O)NC5=O)C6=O)CC4)CC3)nc2)CC(C)(C)O1 (stereo not drawn)
Target Under Test: ERα (Homo sapiens, UniProt P03372)
Endpoint Value: > 100 nM
//
Molecule: CC1(C)CC(=C(c2ccc(N3CCC(N4CCN(c5ccc6c(c5)C(=O)N(C5CCC(=O)NC5=O)C6=O)CC4)CC3)cc2)c2ccc3[nH]nc(F)c3c2)CC(C)(C)O1 (stereo not drawn)
Target Under Test: ERα (Homo sapiens, UniProt P03372)
Endpoint Value: < 10 nM

Ask: Reported DC50, molecule CC1(C)CC(=C(c2ccc(N3CCC(F)(CNC4CCN(c5ccc6c(c5)CN([C@@H]5CCC(=O)NC5=O)C6=O)CC4)CC3)nc2)c2ccc3[nH]nc(F)c3c2)CC(C)(C)O1 : ____
Reply: < 10 nM

Ask: Reported DC50, molecule CC1(C)CC(=C(c2ccc(N3CCC(CN4CCN(c5ccc6c(c5)CN([C@H]5CCC(=O)NC5=O)C6=O)CC4)CC3)nc2)c2ccc3[nH]nc(F)c3c2)CC(C)(C)O1 : ____
Reply: < 10 nM

Ask: Reported DC50, molecule CC1(C)CC(=C(c2ccc(N3CCC4(CC3)CC(N3CC5(CN(c6ccc7c(c6)CN(C6CCC(=O)NC6=O)C7=O)C5)C3)C4)nc2)c2ccc3[nH]nc(F)c3c2)CC(C)(C)O1 (stereo not drawn) : ____
Reply: > 100 nM

Ask: Reported DC50, molecule CC1(C)CC(=C(c2ccc(N3CC4(CCC(N5CCN(c6ccc7c(c6)CN(C6CCC(=O)NC6=O)C7=O)CC5)CC4)C3)nc2)c2ccc3[nH]nc(F)c3c2)CC(C)(C)O1 (stereo not drawn) : ____
Reply: < 10 nM

Ask: Reported DC50, molecule CN(CC1CCN(c2ccc(C(=C3CC(C)(C)OC(C)(C)C3)c3ccc4[nH]nc(F)c4c3)cn2)CC1)C1CCN(c2ccn3c(N4CCC(=O)NC4=O)cnc3c2)CC1 : ____
Reply: > 100 nM

Ask: Reported DC50, molecule CC1(C)CC(=C(c2ccc(N3CCN(C4CCN(c5cccc(NC6CCC(=O)NC6=O)c5)CC4)CC3)cc2)c2ccc3[nH]ncc3c2)CC(C)(C)O1 (stereo not drawn) : ____
Reply: > 100 nM

----------
Biological target: ERα (Homo sapiens, UniProt P03372)
Construct: host or cells: MCF-7
Sequence (P03372 1-595): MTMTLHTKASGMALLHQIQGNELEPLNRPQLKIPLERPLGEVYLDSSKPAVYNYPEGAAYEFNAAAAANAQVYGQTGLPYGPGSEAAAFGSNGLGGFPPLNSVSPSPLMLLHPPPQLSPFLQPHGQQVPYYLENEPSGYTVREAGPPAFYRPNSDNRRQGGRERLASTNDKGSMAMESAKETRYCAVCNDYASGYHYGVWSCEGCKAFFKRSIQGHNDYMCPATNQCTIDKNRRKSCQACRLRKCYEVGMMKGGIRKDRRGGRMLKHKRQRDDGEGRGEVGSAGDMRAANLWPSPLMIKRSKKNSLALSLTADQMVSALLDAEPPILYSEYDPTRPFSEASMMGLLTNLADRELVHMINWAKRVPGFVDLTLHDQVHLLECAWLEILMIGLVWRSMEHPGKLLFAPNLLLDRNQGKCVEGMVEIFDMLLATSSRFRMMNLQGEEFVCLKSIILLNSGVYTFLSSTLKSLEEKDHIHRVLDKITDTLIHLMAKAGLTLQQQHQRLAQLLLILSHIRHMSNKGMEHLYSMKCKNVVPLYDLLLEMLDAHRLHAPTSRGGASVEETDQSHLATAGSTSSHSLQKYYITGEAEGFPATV
Assay: ER degradation activity in MCF-7 cells (Western blot, grayscale intensity)
Assay type: cell-based
Conditions: 6 hours treatment, 1 nM to 100 nM, concentration required to degrade 50% of the target protein
Experimental: ERα-positive human breast cancer cells MCF-7 (ATCC, HTB-22) were cultured with EMEM medium (ATCC, catalog number 30-2003) containing 10% fetal bovine serum (Thermo Fisher, catalog number 10099141) and 10 µg/mL bovine insulin in 25 cm^2 or 75 cm^2 plastic tissue culture flasks in a 37 °C incubator with 5% CO2. […] The culture medium was removed, and the cells were washed twice with ice cold PBS. […] The protein concentration was measured using the BCA protein assay kit. […]
Endpoint: DC50

Compound: CC1(C)CC(=C(c2ccc3[nH]nc(F)c3c2)c2c(F)cc(OCCN3CCN(c4ccc5c(c4)C(=O)N(C4CCC(=O)NC4=O)C5=O)CC3)cc2F)CC(C)(C)O1 (centres unmarked)
Endpoint Value: > 100 nM
--
Compound: CC1(C)CC(=C(c2ccc(N3CCN(C4CCN(c5ccc6c(c5)C(=O)N(C5CCC(=O)NC5=O)C6=O)CC4)CC3)cc2)c2ccc3[nH]nc(F)c3c2)CC(C)(C)O1 (centres unmarked)
Endpoint Value: < 10 nM
--
Compound: CC1(C)CC(=C(c2ccc(N3CCC(CN4CCN(c5ccc6c(c5)C(=O)N(C5CCC(=O)NC5=O)C6=O)CC4)CC3)cc2)c2ccc3[nH]ncc3c2)CC(C)(C)O1 (centres unmarked)
Endpoint Value: < 10 nM
--
Compound: CC1(C)CC(=C(c2ccc(N3CCC4(CC3)CN(C(=O)CN3Cc5cc6c(cc5C3)C(=O)N(C3CCC(=O)NC3=O)C6=O)C4)nc2)c2ccc3[nH]nc(F)c3c2)CC(C)(C)O1 (centres unmarked)
Endpoint Value: > 100 nM

// moving on: another record for DC50
Ask: What reported DC50 corresponds to CC1(C)CC(=C(c2ccc(N3CCC(CN4CCN(c5ccc6c(c5)CN(C5CCC(=O)NC5=O)C6=O)CC4)CC3)nc2)c2ccc3cncn3c2)CC(C)(C)O1 (centres unmarked) on ERα (Homo sapiens, UniProt P03372)?
Reply: > 100 nM

----------
A collection of compounds and their measured DC50
Target: ERα (Homo sapiens, UniProt P03372)
Construct: host or cells: MCF-7
Sequence (P03372 1-595): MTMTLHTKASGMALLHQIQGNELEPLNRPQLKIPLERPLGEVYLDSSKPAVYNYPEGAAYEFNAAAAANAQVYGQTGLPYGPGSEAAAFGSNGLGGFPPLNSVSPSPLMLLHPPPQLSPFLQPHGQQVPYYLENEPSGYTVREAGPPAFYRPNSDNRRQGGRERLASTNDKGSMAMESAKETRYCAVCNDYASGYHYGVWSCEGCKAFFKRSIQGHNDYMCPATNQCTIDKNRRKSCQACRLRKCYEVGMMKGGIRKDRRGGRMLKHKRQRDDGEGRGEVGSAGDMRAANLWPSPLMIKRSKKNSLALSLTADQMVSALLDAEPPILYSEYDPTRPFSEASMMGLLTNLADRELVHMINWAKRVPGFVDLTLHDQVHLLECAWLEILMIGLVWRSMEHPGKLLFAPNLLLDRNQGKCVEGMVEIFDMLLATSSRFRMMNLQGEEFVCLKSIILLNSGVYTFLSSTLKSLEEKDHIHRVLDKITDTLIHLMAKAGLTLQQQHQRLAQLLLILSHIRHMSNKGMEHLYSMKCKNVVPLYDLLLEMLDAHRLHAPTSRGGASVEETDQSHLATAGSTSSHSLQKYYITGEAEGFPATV
Assay: ER degradation activity in MCF-7 cells (Western blot, grayscale intensity)
Type: cell-based
Details: 6 hours treatment, 1 nM to 100 nM, concentration required to degrade 50% of the target protein
Experimental: ERα-positive human breast cancer cells MCF-7 (ATCC, HTB-22) were cultured with EMEM medium (ATCC, catalog number 30-2003) containing 10% fetal bovine serum (Thermo Fisher, catalog number 10099141) and 10 µg/mL bovine insulin in 25 cm^2 or 75 cm^2 plastic tissue culture flasks in a 37 °C incubator with 5% CO2. […] The culture medium was removed, and the cells were washed twice with ice cold PBS. […] The protein concentration was measured using the BCA protein assay kit. […]

Below are worked cases with known answers.
Compound: CC1(C)CC(=C(c2ccc(OC3CN(C4CN(c5ccc6c(c5)C(=O)N(C5CCC(=O)NC5=O)C6=O)C4)C3)cc2)c2ccc3[nH]nc(F)c3c2)CC(C)(C)O1 (centres unmarked)
Target Under Test: ERα (Homo sapiens, UniProt P03372)
DC50: > 100 nM

Compound: CC1(C)CC(=C(c2ccc3[nH]nc(F)c3c2)c2c(F)cc(OC3CN(C4CCN(c5ccc6c(c5)C(=O)N(C5CCC(=O)NC5=O)C6=O)CC4)C3)cc2F)CC(C)(C)O1 (centres unmarked)
Target Under Test: ERα (Homo sapiens, UniProt P03372)
DC50: > 100 nM

Compound: CC1(C)CC(=C(c2ccc(N3CCN(C[C@@H]4[C@H]5CN(c6ccc7c(c6)CN(C6CCC(=O)NC6=O)C7=O)C[C@@H]45)CC3)nc2)c2ccc3[nH]nc(F)c3c2)CC(C)(C)O1 (some centres unmarked)
Target Under Test: ERα (Homo sapiens, UniProt P03372)
DC50: > 100 nM

Ask: Reported DC50, compound CC1(C)CC(=C(c2ccc(N3CCC(CN4CCN(c5ccc(C(=O)N[C@H]6CCC(=O)NC6=O)nc5)CC4)CC3)nc2)c2ccc3[nH]nc(F)c3c2)CC(C)(C)O1 : ____
Reply: 10 to 100 nM

Ask: Reported DC50, compound CC1(C)CC(=C(c2ccc(N3CCC(N4CCN(c5ccc(N6CCC(=O)NC6=O)cc5)CC4)CC3)cc2)c2ccc3[nH]nc(F)c3c2)CC(C)(C)O1 : ____
Reply: > 100 nM
